- tested on: recombinant murine macrophage nitric oxide synthase (iNOS) (Mus musculus)
- method notes: Hemoglobin capture assay of nitric oxide formation, iNOS
- condition summary: Table 2 dipeptides
Peptide text beside a SMILES is read from it.
measured endpoint: iNOS/eNOS selectivity
The response must contain the number and no unit.

stdin: For COC(=O)[C@@H](Cc1ccccc1)NC(=O)[C@@H](N)CCCNC(=N)N[N+](=O)[O-] , what is its reported iNOS/eNOS selectivity?
stdout: 5.3

stdin: For COC(=O)[C@H](Cc1ccccc1)NC(=O)[C@H](N)CCCNC(=N)N[N+](=O)[O-] , what is its reported iNOS/eNOS selectivity?
stdout: 0.22

stdin: For COC(=O)[C@H](CCCNC(=N)N[N+](=O)[O-])NC(=O)[C@@H](N)Cc1ccccc1 [compound 4, L-Phe-L-Arg^NO2 -OMe] (HELM PEPTIDE1{F.[N=C(NCCC[C@H](N[*:1])C(=O)[*:2])N[N+](=O)[O-]].[CO[*:1]]}$$$$V2.0) , what is its reported iNOS/eNOS selectivity?
stdout: 6.6

stdin: For N=C(NCCC[C@H](NC(=O)[C@@H](N)Cc1ccccc1)C(=O)OCc1ccccc1)N[N+](=O)[O-] [compound 6, L-Phe-L-Arg^NO2 -OBn] (HELM PEPTIDE1{F.[N=C(NCCC[C@H](N[*:1])C(=O)[*:2])N[N+](=O)[O-]].[c1ccc(CO[*:1])cc1]}$$$$V2.0) , what is its reported iNOS/eNOS selectivity?
stdout: 5.6

stdin: For COC(=O)[C@@H](Cc1ccccc1)NC(=O)[C@H](N)CCCNC(=N)N[N+](=O)[O-] , what is its reported iNOS/eNOS selectivity?
stdout: 0.058

----------
- tested on: recombinant murine macrophage nitric oxide synthase (iNOS) (Mus musculus)
- method notes: Hemoglobin capture assay of nitric oxide formation, iNOS
- condition summary: read-out: Ki iNOS; Table 2, Dixon plots; ^a = uncompetitive inhibition
Peptide text beside a SMILES is read from it.
measured endpoint: Ki (mM)
The figure you give is taken to be in mM; do not add the unit.

stdin: For COC(=O)[C@@H](CCCNC(=N)N[N+](=O)[O-])NC(=O)[C@@H](N)Cc1ccccc1 [compound 10, L-Phe-D-Arg^NO2 -OMe] (HELM PEPTIDE1{F.[N=C(NCCC[C@@H](N[*:1])C(=O)[*:2])N[N+](=O)[O-]].[CO[*:1]]}$$$$V2.0) , what is its reported Ki?
stdout: 7.5

stdin: For COC(=O)[C@@H](Cc1ccccc1)NC(=O)[C@@H](N)CCCNC(=N)N[N+](=O)[O-] [compound 7, L-Arg^NO2 -D-Phe-OMe] , what is its reported Ki?
stdout: 0.1

stdin: For COC(=O)[C@@H](CCCN=C(N)N[N+](=O)[O-])NC(=O)[C@H](N)Cc1ccccc1 [compound 12, D-Phe-D-Arg^NO2 -OMe] (HELM PEPTIDE1{[dF].[N=C(NCCC[C@@H](N[*:1])C(=O)[*:2])N[N+](=O)[O-]].[CO[*:1]]}$$$$V2.0) , what is its reported Ki?
stdout: 3.6

stdin: For COC(=O)[C@H](CCCNC(=N)N[N+](=O)[O-])NC(=O)[C@@H](N)Cc1ccccc1 [compound 4, L-Phe-L-Arg^NO2 -OMe] (HELM PEPTIDE1{F.[N=C(NCCC[C@H](N[*:1])C(=O)[*:2])N[N+](=O)[O-]].[CO[*:1]]}$$$$V2.0) , what is its reported Ki?
stdout: 0.204

stdin: For COC(=O)[C@H](Cc1ccccc1)NC(=O)[C@H](N)CCCNC(=N)N[N+](=O)[O-] [compound 8, D-Arg^NO2 -L-Phe-OMe] , what is its reported Ki?
stdout: 6.4

----------
- tested on: neuronal nitric oxide synthase (nNOS) from bovine brain (Bos taurus, UniProt A0A3Q1M6M2)
- Sequence (A0A3Q1M6M2 entry or part of it): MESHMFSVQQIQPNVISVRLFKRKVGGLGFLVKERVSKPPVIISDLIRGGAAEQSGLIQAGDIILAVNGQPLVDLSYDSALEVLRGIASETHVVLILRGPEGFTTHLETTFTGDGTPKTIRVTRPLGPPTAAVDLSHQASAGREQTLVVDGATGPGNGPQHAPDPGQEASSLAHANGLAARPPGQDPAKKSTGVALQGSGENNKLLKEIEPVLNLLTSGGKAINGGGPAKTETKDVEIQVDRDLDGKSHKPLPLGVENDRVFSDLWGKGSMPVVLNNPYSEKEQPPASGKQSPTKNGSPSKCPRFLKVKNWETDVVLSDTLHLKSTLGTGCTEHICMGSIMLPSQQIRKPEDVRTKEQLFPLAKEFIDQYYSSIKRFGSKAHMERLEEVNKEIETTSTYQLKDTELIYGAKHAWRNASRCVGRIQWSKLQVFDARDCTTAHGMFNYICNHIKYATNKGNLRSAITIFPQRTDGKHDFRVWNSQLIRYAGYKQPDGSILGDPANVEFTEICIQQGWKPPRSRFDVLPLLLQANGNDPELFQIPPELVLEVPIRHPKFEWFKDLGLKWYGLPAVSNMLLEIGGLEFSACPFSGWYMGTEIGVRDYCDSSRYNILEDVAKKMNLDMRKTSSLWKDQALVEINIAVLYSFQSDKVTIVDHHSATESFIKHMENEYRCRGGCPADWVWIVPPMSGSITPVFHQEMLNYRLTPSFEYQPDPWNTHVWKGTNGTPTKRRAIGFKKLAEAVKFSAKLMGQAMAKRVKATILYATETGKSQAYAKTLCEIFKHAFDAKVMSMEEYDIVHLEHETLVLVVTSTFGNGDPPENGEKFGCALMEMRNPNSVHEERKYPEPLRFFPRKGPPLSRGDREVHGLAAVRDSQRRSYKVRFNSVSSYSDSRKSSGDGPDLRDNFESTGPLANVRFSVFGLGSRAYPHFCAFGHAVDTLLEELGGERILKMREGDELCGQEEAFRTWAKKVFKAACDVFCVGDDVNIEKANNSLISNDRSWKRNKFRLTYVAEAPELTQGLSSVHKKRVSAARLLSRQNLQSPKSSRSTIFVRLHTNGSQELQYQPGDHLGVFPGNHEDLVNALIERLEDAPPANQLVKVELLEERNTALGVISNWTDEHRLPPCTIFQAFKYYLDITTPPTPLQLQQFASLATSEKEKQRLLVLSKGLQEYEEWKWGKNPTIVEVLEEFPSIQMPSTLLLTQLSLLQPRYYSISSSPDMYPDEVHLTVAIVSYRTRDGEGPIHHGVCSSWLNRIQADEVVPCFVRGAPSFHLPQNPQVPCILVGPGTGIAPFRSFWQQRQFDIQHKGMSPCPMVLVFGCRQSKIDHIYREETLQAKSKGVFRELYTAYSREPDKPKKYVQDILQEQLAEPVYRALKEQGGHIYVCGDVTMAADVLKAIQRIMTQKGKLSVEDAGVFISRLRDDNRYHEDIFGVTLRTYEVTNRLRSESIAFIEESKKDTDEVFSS
- method notes: Hemoglobin capture assay of nitric oxide formation, nNOS
- condition summary: read-out: Ki nNOS; Table 2, Dixon plots
Peptide text beside a SMILES is read from it.
Please go through the items and note down their pKi.
# pKi is unitless: minus log10 of the molar concentration; print number only

stdin: For COC(=O)[C@@H](CCCN=C(N)N[N+](=O)[O-])NC(=O)[C@H](N)Cc1ccccc1 [compound 12, D-Phe-D-Arg^NO2 -OMe] (HELM PEPTIDE1{[dF].[N=C(NCCC[C@@H](N[*:1])C(=O)[*:2])N[N+](=O)[O-]].[CO[*:1]]}$$$$V2.0) , what is its reported pKi?
stdout: 5.70

stdin: For COC(=O)[C@H](CCCNC(=N)N[N+](=O)[O-])NC(=O)[C@@H](N)Cc1ccccc1 [compound 4, L-Phe-L-Arg^NO2 -OMe] (HELM PEPTIDE1{F.[N=C(NCCC[C@H](N[*:1])C(=O)[*:2])N[N+](=O)[O-]].[CO[*:1]]}$$$$V2.0) , what is its reported pKi?
stdout: 3.43

stdin: For COC(=O)[C@@H](CCCNC(=N)N[N+](=O)[O-])NC(=O)[C@@H](N)Cc1ccccc1 [compound 10, L-Phe-D-Arg^NO2 -OMe] (HELM PEPTIDE1{F.[N=C(NCCC[C@@H](N[*:1])C(=O)[*:2])N[N+](=O)[O-]].[CO[*:1]]}$$$$V2.0) , what is its reported pKi?
stdout: 4.05

stdin: For N=C(NCCC[C@H](N)C(=O)N[C@@H](Cc1ccccc1)C(=O)OCc1ccccc1)N[N+](=O)[O-] , what is its reported pKi?
stdout: 4.26

stdin: For COC(=O)[C@@H](Cc1ccccc1)NC(=O)[C@H](N)CCCNC(=N)N[N+](=O)[O-] , what is its reported pKi?
stdout: 3.82
